test-details: LD50 in rats (acute toxicity)
test-parameters: rat, in vivo; oral administration to rats
Where a name gives a salt, the structure may show the parent alone.
attribute-measured: LD50

Record Cc1c(C)c2c(c(C)c1OP(=O)(O)OC1=C(O)[C@@H]([C@@H](O)CO)OC1=O)CCC(C)(CCCC(C)CCCC(C)CCCC(C)C)O2 (mixture of isomers) [EPC-K, potassium salt] , field LD50: ≥ 5000 mg/kg

The origin of these recorded values is patent US5489576A.
